- Experimental System: T1, human wild-type Sema3A of SEQ ID NO: 600, expressed by HEK293 cells (human, UniProt Q14563 22-771, limits assumed)
- T1 sequence: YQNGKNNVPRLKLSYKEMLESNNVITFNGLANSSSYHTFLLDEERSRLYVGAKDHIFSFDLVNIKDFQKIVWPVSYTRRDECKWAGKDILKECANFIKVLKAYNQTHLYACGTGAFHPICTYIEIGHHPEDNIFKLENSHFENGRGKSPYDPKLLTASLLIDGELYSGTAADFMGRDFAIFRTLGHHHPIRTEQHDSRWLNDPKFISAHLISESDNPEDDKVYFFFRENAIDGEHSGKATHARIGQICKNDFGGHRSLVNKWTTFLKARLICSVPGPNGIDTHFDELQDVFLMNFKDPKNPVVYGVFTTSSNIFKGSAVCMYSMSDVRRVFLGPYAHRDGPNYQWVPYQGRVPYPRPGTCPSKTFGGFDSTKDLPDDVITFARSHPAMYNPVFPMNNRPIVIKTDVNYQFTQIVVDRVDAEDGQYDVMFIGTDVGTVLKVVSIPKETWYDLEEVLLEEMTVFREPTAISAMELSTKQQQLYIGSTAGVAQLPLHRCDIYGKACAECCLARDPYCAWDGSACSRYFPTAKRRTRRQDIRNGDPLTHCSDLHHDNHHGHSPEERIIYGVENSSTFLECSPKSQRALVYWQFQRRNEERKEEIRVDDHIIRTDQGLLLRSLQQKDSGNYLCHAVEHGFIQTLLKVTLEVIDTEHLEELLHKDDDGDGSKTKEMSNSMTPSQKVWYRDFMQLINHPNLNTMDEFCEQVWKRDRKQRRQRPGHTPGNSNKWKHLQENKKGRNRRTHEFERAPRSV
- Assay Remarks: cell-based or functional assay
Observed Property: EC50 (pM), HUVEC repulsion assay, second experiment

>  <Binder>
TPP-30789 (antibody, human IgG1, kappa, V domains shown, prior art, WO 2020/225400; also called BI clone II; Böhringer (BI) Clone II) VH: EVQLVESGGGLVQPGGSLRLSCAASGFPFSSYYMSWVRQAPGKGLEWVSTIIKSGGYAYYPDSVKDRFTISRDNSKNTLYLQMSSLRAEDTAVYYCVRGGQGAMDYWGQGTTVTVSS VL: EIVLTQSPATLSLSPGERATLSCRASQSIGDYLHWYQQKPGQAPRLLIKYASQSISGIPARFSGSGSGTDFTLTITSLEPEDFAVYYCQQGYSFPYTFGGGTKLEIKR

>  <Unit>
pM

>  <Assay Result>
165

$$$$
